These molecules were tested on Angiotensin-converting enzyme (Homo sapiens); IC50 is the recorded read-out.
Sequence (P12821 whole entry): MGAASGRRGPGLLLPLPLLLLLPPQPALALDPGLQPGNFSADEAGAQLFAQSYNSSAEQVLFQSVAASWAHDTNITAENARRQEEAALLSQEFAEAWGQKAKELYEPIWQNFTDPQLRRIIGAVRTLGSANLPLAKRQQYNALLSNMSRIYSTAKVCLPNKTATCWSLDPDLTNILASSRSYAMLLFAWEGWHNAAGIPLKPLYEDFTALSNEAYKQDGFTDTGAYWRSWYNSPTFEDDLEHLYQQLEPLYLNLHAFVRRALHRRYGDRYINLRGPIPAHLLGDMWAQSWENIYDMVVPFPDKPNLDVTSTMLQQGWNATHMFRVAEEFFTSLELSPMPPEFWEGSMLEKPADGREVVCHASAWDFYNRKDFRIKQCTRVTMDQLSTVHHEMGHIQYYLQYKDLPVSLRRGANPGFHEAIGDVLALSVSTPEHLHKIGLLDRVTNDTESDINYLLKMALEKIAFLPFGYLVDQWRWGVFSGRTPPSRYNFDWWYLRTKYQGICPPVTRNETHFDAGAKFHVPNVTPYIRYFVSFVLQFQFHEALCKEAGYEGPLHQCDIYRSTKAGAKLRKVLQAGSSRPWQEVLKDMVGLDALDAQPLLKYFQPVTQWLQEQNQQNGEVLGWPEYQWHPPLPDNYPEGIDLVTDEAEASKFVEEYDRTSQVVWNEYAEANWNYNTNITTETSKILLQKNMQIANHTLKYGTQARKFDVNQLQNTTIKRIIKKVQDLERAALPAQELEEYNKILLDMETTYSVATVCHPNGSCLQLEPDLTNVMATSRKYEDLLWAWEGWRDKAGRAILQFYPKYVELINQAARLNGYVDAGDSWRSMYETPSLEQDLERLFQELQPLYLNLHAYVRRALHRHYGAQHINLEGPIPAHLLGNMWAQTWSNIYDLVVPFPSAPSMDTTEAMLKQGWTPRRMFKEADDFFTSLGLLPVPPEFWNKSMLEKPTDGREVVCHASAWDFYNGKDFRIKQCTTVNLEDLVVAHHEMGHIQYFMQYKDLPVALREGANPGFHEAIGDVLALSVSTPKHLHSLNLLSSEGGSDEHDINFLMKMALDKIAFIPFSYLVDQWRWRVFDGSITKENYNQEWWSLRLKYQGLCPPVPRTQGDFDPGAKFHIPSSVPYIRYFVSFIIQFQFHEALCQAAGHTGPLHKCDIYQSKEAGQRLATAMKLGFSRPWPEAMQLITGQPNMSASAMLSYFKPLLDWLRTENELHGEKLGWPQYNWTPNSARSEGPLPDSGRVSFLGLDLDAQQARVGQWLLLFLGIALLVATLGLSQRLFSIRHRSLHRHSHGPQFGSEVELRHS
Quick reminder: number only, in mM, skip the unit.

Record O=C1O[C@H]2[C@@H]3OC(=O)c4cc(O)c(O)c(O)c4-c4c(cc(O)c(O)c4O)C(=O)OC[C@H]2O[C@@H](OC(=O)c2cc(O)c(O)c(O)c2)[C@@H]3OC(=O)c2cc(O)c(O)c3c2[C@@H]2C1=CC(=O)[C@](O)(O3)C2(O)O [GERANIIN] / Angiotensin-converting enzyme (Homo sapiens), IC50 recorded as 0.4

Measured on Angiotensin-converting enzyme (Homo sapiens), O=C(O)c1cc(O)c(O)c(O)c1 [GALLIC ACID] has a documented IC50 of 7.7

// below: IC50 requested for another molecule
IC50 value, target or system Angiotensin-converting enzyme (Homo sapiens), for O=c1oc2c(O)c(O)cc3c(=O)oc4c(O)c(O)cc1c4c23 [ELLAGIC ACID] : 5
